experiment: Chemical stability study: vitamin contents on storage at 20 °C/ambient RH; format: physicochemical; settings: Example 4 vitamin and mineral syrup, batch 1, time 0
Parameter: Initial content. Scope: all listed entries.
Report as a plain number; the unit μg/5 ml is understood.

Returns the measured Initial content for the input molecule. Input: O=C(O)CCCC[C@@H]1SC[C@@H]2NC(=O)N[C@@H]21 [Biotin] 109

Would you kindly look at the next entry?
Returns the measured Initial content for the input molecule. Input: Nc1nc2ncc(CNc3ccc(C(=O)N[C@@H](CCC(=O)O)C(=O)O)cc3)nc2c(=O)[nH]1 [Folic acid] 276
